Entries with their measured IC50, system Full length PKA (Homo sapiens, UniProt P17612):

Completed entries (count: 7):
| molecule | IC50 |
| --- | --- |
| Cn1nccc1-c1ccc2c(n1)CN([C@H](CN)Cc1cccc(F)c1)C2=O [Example 110] | > 5 µM |
| Cn1ncc(Cl)c1-c1ccc2c(c1)CN([C@H](CN)Cc1cccc(-c3ccncc3)c1)C2=O [Example 72] | > 5 µM |
| Cn1ncc(Br)c1-c1ccc2c(c1)CN([C@H](CN)Cc1ccccc1)C2=O [Example 57] | > 5 µM |
| Cn1ncc(Cl)c1-c1ccc2c(c1)CN([C@H](CN)Cc1cccnc1)C2=O [Example 65] | > 5 µM |
| CCCOCc1cnn(C)c1-c1cc2c(cn1)C(=O)N([C@H](CN)Cc1cccc(F)c1)C2 [Example 96] | > 5 µM |
| Cn1nccc1-c1ccc2c(c1)CN([C@H](CN)Cc1ccsc1)C2=O [Example 81] | 0.5 to 5 µM |
| COCc1cnn(C)c1-c1ccc2c(c1)CN([C@H](CN)Cc1cccc(F)c1)C2=O [Example 4] | > 5 µM |

Shifting focus to the molecule that follows.
**Q:** Request - read-out IC50 | tested on Full length PKA (Homo sapiens, UniProt P17612) | molecule Cn1ncc(Cl)c1-c1ccc2c(c1)CN([C@H](CN)Cc1cscn1)C2=O [Example 69]
**A:** 0.5 to 5 µM

====

pIC50: −log10 of the molar value.
Entries with their measured pIC50, system Full length Akt2 (Homo sapiens, UniProt P31751):

| compound | pIC50 |
| --- | --- |
| COc1ccc(C(CN)N2Cc3cc(-c4ccnn4C)ccc3C2=O)cc1 (centres unmarked) | < 5.30 |

**Q:** Request - read-out pIC50 | tested on Full length Akt2 (Homo sapiens, UniProt P31751) | compound Cn1nccc1-c1ccc2c(c1)CN([C@H](CN)Cc1csc3ccccc13)C2=O
**A:** > 6.30

**Q:** Request - read-out pIC50 | tested on Full length Akt2 (Homo sapiens, UniProt P31751) | compound Cn1ncc(Cl)c1-c1ccc2c(c1)CN([C@H](CN)Cc1cscn1)C2=O
**A:** 5.30 to 6.30

**Q:** Request - read-out pIC50 | tested on Full length Akt2 (Homo sapiens, UniProt P31751) | compound Cn1nccc1-c1ccc2c(c1)CN([C@H](CN)Cc1ccsc1)C2=O
**A:** > 6.30

**Q:** Request - read-out pIC50 | tested on Full length Akt2 (Homo sapiens, UniProt P31751) | compound Cn1ncc(Cl)c1-c1ccc2c(c1)CN([C@H](CN)Cc1cccc(C(F)(F)F)c1)C2=O (stereo in doubt)
**A:** > 6.30

**Q:** Request - read-out pIC50 | tested on Full length Akt2 (Homo sapiens, UniProt P31751) | compound Cn1nccc1-c1cc2c(cn1)C(=O)N([C@H](CN)CC1CCCCC1)C2
**A:** > 6.30

**Q:** Request - read-out pIC50 | tested on Full length Akt2 (Homo sapiens, UniProt P31751) | compound Cn1nccc1-c1ccc2c(c1)CN([C@H](CN)Cc1cccc(-c3cncnc3)c1)C2=O
**A:** < 5.30

**Q:** Request - read-out pIC50 | tested on Full length Akt2 (Homo sapiens, UniProt P31751) | compound Cc1cnn(C)c1-c1cc2c(cn1)C(=O)N([C@H](CN)Cc1cccc(F)c1)C2
**A:** > 6.30

**Q:** Request - read-out pIC50 | tested on Full length Akt2 (Homo sapiens, UniProt P31751) | compound CC(C)OCc1cnn(C)c1-c1ccc2c(c1)CN([C@H](CN)Cc1cccc(F)c1)C2=O
**A:** > 6.30

**Q:** Request - read-out pIC50 | tested on Full length Akt2 (Homo sapiens, UniProt P31751) | compound Cn1ncc(-c2cccs2)c1-c1ccc2c(c1)CN([C@H](CN)Cc1cccc(F)c1)C2=O
**A:** < 5.30

**Q:** Request - read-out pIC50 | tested on Full length Akt2 (Homo sapiens, UniProt P31751) | compound Cn1nccc1-c1ccc2c(c1)CN([C@H](CN)CC1CC1)C2=O
**A:** 5.30 to 6.30

**Q:** Request - read-out pIC50 | tested on Full length Akt2 (Homo sapiens, UniProt P31751) | compound CC(C)OCc1cnn(C)c1-c1ccc2c(c1)CN([C@@H](CN)c1ccccc1)C2=O
**A:** 5.30 to 6.30

**Q:** Request - read-out pIC50 | tested on Full length Akt2 (Homo sapiens, UniProt P31751) | compound Cn1ncc(Cl)c1-c1ccc2c(c1)CN([C@H](CNC1CCCC1)Cc1cccc(F)c1)C2=O
**A:** 5.30 to 6.30

====

pIC50: −log10 of the molar value.
Entries with their measured pIC50, system Full length Akt3 (Homo sapiens, UniProt Q9Y243):

Completed entries (count: 7):
| test_smiles | assayed_system | reported_value |
| --- | --- | --- |
| CCNC[C@H](Cc1cccc(F)c1)N1Cc2cc(-c3c(Cl)cnn3C)ccc2C1=O | Full length Akt3 (Homo sapiens, UniProt Q9Y243) | 5.30 to 6.30 |
| CCCOCc1cnn(C)c1-c1cc2c(cn1)C(=O)N([C@H](CN)Cc1cc(F)cc(F)c1)C2 | Full length Akt3 (Homo sapiens, UniProt Q9Y243) | > 6.30 |
| Cn1nccc1-c1cc2c(cn1)C(=O)N([C@H](CN)Cc1cccc(F)c1)C2 | Full length Akt3 (Homo sapiens, UniProt Q9Y243) | > 6.30 |
| Cn1ncc(-c2cccs2)c1-c1ccc2c(c1)CN([C@H](CN)Cc1cccc(F)c1)C2=O | Full length Akt3 (Homo sapiens, UniProt Q9Y243) | > 6.30 |
| Cn1ncc(Cl)c1-c1ccc2c(c1)CN([C@H](CN)Cc1ccc(C#N)cc1)C2=O | Full length Akt3 (Homo sapiens, UniProt Q9Y243) | 5.30 to 6.30 |
| Cn1ncc(COC2CCC2)c1-c1cc2c(cn1)C(=O)N([C@H](CN)Cc1cc(F)cc(F)c1)C2 | Full length Akt3 (Homo sapiens, UniProt Q9Y243) | > 6.30 |
| COCc1cnn(C)c1-c1ccc2c(c1)CN([C@H](CN)CC1CCCCC1)C2=O | Full length Akt3 (Homo sapiens, UniProt Q9Y243) | 5.30 to 6.30 |

Shifting focus to the compound that follows.
**Q:** I have this compound here, Cn1ncc(Cl)c1-c1ccc2c(c1)CN([C@H](CNC1CCC1)Cc1cccc(F)c1)C2=O , and I need its recorded pIC50.
**A:** 5.30 to 6.30

====

Entries with their measured IC50, system UniProtKB Q9Y243:

Completed entries (count: 4):
| test_smiles | IC50 |
| --- | --- |
| CCSCc1cnn(C)c1-c1ccc2c(c1)CN([C@H](CN)Cc1cc(F)cc(F)c1)C2=O | < 500 nM |
| CNC[C@H](Cc1cccc(F)c1)N1Cc2cc(-c3c(Cl)cnn3C)ccc2C1=O | 500 to 5000 nM |
| Cn1ncc(Br)c1-c1cc2c(cn1)C(=O)N([C@H](CN)Cc1cc(F)cc(F)c1)C2 | < 500 nM |
| CC(C)OCc1cnn(C)c1-c1cc2c(cn1)C(=O)N([C@H](CN)Cc1cc(F)cc(F)c1)C2 | < 500 nM |

Shifting focus to the molecule that follows.
**Q:** Request - read-out IC50 | tested on UniProtKB Q9Y243 | molecule Cn1ncc(Cl)c1-c1ccc2c(c1)CN([C@H](CN)Cc1cccc(-c3ccsc3)c1)C2=O
**A:** 500 to 5000 nM

====

Entries with their measured IC50, system Full length Akt2 (Homo sapiens, UniProt P31751):

| compound | reported_value |
| --- | --- |
| Cn1ncc(Br)c1-c1ccc2c(c1)CN([C@H](CN)Cc1cc(F)cc(F)c1)C2=O [Example 52] | < 500 nM |

**Q:** Request - read-out IC50 | tested on Full length Akt2 (Homo sapiens, UniProt P31751) | compound Cn1ncc(Br)c1-c1ccc2c(c1)CN([C@H](CN)Cc1cccc(F)c1)C2=O [Example 12]
**A:** < 500 nM

**Q:** Request - read-out IC50 | tested on Full length Akt2 (Homo sapiens, UniProt P31751) | compound Cn1ncc(Cl)c1-c1ccc2c(c1)CN([C@H](CNC1CC1)Cc1cccc(F)c1)C2=O [Example 33]
**A:** 500 to 5000 nM

**Q:** Request - read-out IC50 | tested on Full length Akt2 (Homo sapiens, UniProt P31751) | compound Cn1nccc1-c1cc2c(cn1)C(=O)N([C@H](CN)Cc1cccc(F)c1)C2 [Example 93]
**A:** < 500 nM

**Q:** Request - read-out IC50 | tested on Full length Akt2 (Homo sapiens, UniProt P31751) | compound Cn1ncc(COC2CCC2)c1-c1ccc2c(c1)CN([C@H](CN)Cc1cccc(F)c1)C2=O [Example 8]
**A:** < 500 nM

**Q:** Request - read-out IC50 | tested on Full length Akt2 (Homo sapiens, UniProt P31751) | compound CCN(CC)C[C@H](Cc1cccc(F)c1)N1Cc2cc(-c3c(Cl)cnn3C)ccc2C1=O [Example 39]
**A:** > 5000 nM

**Q:** Request - read-out IC50 | tested on Full length Akt2 (Homo sapiens, UniProt P31751) | compound Cn1ncc(Cl)c1-c1ccc2c(c1)CN(C(CN)c1ccccc1)C2=O (stereo in doubt) [Example 114]
**A:** 500 to 5000 nM

**Q:** Request - read-out IC50 | tested on Full length Akt2 (Homo sapiens, UniProt P31751) | compound Cn1ncc(Cl)c1-c1ccc2c(c1)CN([C@H](CN)Cc1ccccn1)C2=O [Example 66]
**A:** < 500 nM

**Q:** Request - read-out IC50 | tested on Full length Akt2 (Homo sapiens, UniProt P31751) | compound Cn1nccc1-c1ccc2c(c1)CN([C@H](CN)Cc1cccs1)C2=O [Example 80]
**A:** < 500 nM

**Q:** Request - read-out IC50 | tested on Full length Akt2 (Homo sapiens, UniProt P31751) | compound Cn1nccc1-c1ccc2c(c1)CN([C@H](CN)Cc1cccc(C#N)c1)C2=O [Example 75]
**A:** < 500 nM
